Tested on: CAKI-1 renal
Assay: NCI-60 one-dose screen, 48 h
Conditions: 10 µM unless noted
Compounds without any hit were thinned out: in the full panel of roughly 83,000, 20% have a hit. The source made the active and inactive calls. Rule for the calls: active = growth percent below 10; inactive = the rest.
Just give me one of these, please: active, inactive

Example results:
N=C(N)c1ccc(-c2cc(Cl)cc(Cl)c2)cn1    inactive
COc1ccc(S(=O)(=O)NCCCNc2nccc(-n3ccc4cccnc43)n2)cc1    inactive
N#Cc1c(Nc2ccccc2)nc2n(c1=O)-c1ccccc1Sc1ccccc1-2    inactive
C=C1CCC[C@]2(C)CCC[C@H](C)[C@@H](OC(C)=O)[C@@H]3OC(=O)C(=C)[C@@H]3C[C@H]1O2    inactive
Fc1ccc(Nc2nc(NCCNc3ccnc4cc(Cl)ccc34)nc(N3CCOCC3)n2)cc1    inactive

Enquiry: Query: recorded result category for `CCN(CC)CCOc1ccc(/C(=C(/C)c2ccccc2)c2ccc(OC(C)=O)cc2)cc1` in this test
Return: inactive

Enquiry: Query: recorded result category for COc1ccc(C2NN=C3c4ccccc4CCC32)cc1 (stereo not drawn) in this test
Return: inactive

Enquiry: Query: recorded result category for `CCOC(=O)c1ccc2c(c1)c1c(C)c3cccnc3c(C)c1n2C` in this test
Return: inactive

Enquiry: Query: recorded result category for O=C(Oc1ccccc1[N+](=O)[O-])C1CCCN1C(=O)OCc1ccccc1 (stereo not drawn) in this test
Return: inactive

Enquiry: Query: recorded result category for `COc1ccc(/C=C2\CN(Cc3cn(CCNc4ccnc5cc(Cl)ccc45)nn3)C/C(=C\c3ccc(OC)c(OC)c3)C2=O)cc1OC` in this test
Return: inactive

* * *

Test system: A498 renal
Experiment: NCI-60 one-dose screen, 48 h (100 = growth as untreated, 0 = no growth, -100 = all killed)
Details: 10 µM unless noted
This is part of a sample that, as a whole, favours compounds with a hit. Of some 83,000 tested, about 20% had one in any assay. Active and inactive are the calls of the source. How the source made its calls: active means growth percent below 10; inactive means the rest.
measurement_label: growth

Record excerpt, results attached:
Fc1ccccc1-c1nc(-c2nc3cc(Cl)c(Cl)cc3[nH]2)c2ccccn12    104% (inactive)
COc1cc(-c2nn(-c3cccc(NC(=O)c4ccc(Cl)c(C(F)(F)F)c4)c3)cc2-c2ccncc2)ccc1Cl    11.8% (inactive)
COc1cc(/C(C#N)=C/c2ccc3c(c2OC)OCO3)cc2c1OCO2    8.92% (active)

Enquiry: Reported growth, compound CC1CN(c2oc(-c3ccccc3)nc2C#N)CC(C)O1 (configuration not stated) : ____
Return: 93.8% (inactive)

Enquiry: Reported growth, compound C=C1CCC2C(C)(CO)C(O)CCC2(C)C1CC(NCc1ccccc1)C1=CCOC1=O (configuration not stated) : ____
Return: 106% (inactive)

Enquiry: Reported growth, compound `C=C[C@@H]1C[C@H](O)Cc2cc(F)ccc2N1` : ____
Return: 93.8% (inactive)

Enquiry: Reported growth, compound `CCCCN(CCCC)C(=N)c1ccnc2ccccc12` : ____
Return: 90.6% (inactive)

Enquiry: Reported growth, compound `CCN(CC)CCCNc1nccc2ccc(Cl)cc12` : ____
Return: 97.9% (inactive)

Enquiry: Reported growth, compound `CN(C)CCCN(c1nc(C(Cl)(Cl)Cl)ns1)c1nc(C(Cl)(Cl)Cl)ns1` : ____
Return: 73.7% (inactive)

Enquiry: Reported growth, compound `CC(C)CSc1nc(NN)c(C#N)c(-c2ccccc2)n1` : ____
Return: 69.1% (inactive)

Enquiry: Reported growth, compound `Cc1ccc(S(=O)(=O)NCCNc2nccc(-c3c(-c4cccc(N)c4)nc4sccn34)n2)cc1` : ____
Return: 92.4% (inactive)

Enquiry: Reported growth, compound `CC(C)OC(=O)N1CCOCC1` : ____
Return: 90.3% (inactive)
